# Subject Of Test: MMP-14 (Homo sapiens, UniProt P50281)
# Assay Overview: Selection and phage ELISA screening of anti-MMP-14 Fabs
# Assay type: binding
# Condition Set: Fab from FAB310 phage display library
Observable: bind to human MMP-14

M0044-B03: Fab that binds human MMP-14; DNA LV SEQ ID NO: 136, HV SEQ ID NO: 137 (antibody, V domains shown, Synthetically generated oligonucleotide) VL: QDIQMTQSPSSVSASVGDRVTITCRASQNIYSWLAWYQQRPGKAPKLLIYAASSLHSGVPSRFSGSGSGTDFTLTISSLQPEDFATYYCQQAKSFPVTFGGGTKVEIK VH: EVQLLESGGGLVQPGGSLRLSCAASGFTFSQYHMMWVRQAPGKGLEWVSSIGSSGYTKYADSVKGRFTISRDNSKNTLYLQMNSLRAEDTAVYYCAGAVAGTGAFDYWGQGTLVTVSS : bind to human MMP-14
M0043-A09: Fab that binds human MMP-14; DNA LV SEQ ID NO: 126, HV SEQ ID NO: 127 (antibody, V domains shown, Synthetically generated oligonucleotide) VL: QSVLTQPPSVSKDLRQTATLTCTGNSNNVGYQGAAWLQQHQGHPPKVLSYRNNNRPSGISERFSASRSGNTASLTITGLQPEDEADYYCSAWDSSLTAWVFGGGTKLTVL VH: EVQLLESGGGLVQPGGSLRLSCAASGFTFSFYDMTWVRQAPGKGLEWVSSIWSSGGVTDYADSVKGRFTISRDNSKNTLYLQMNSLRAEDTAVYYCTRASSGYYDAFDIWGQGTMVTVSS : bind to human MMP-14
